# Assayed system: rat albumin (rat) (UniProt P02770)
# Sequence (P02770 25-608 limits assumed): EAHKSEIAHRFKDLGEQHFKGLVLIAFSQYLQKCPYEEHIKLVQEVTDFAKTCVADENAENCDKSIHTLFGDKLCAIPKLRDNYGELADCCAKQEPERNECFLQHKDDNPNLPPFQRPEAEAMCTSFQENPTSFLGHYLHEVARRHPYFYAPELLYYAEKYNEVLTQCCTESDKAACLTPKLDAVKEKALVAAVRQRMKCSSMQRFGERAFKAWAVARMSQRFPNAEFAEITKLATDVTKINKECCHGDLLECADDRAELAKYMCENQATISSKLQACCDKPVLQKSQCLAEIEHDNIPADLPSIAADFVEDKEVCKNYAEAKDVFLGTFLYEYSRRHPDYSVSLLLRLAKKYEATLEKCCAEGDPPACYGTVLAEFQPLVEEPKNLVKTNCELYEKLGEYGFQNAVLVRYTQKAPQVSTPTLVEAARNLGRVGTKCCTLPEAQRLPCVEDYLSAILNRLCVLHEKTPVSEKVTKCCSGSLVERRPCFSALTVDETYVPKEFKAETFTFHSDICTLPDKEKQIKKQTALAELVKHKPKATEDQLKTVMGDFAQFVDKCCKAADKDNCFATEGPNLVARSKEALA
# Assay method text: direct binding ELISA, immobilized albumin
Bridges are numbered along the chain shown (N, C = ends). Where no end group is shown, it is not given here.
Outcome measure: pEC50
Numbers only, as −log10 of the molar value.

IN: Consider the binder {Fab4D5 heavy chain (…CDKTH)}-DICLPRWGCLW (Fab, part only; not given: carrier Fab4D5 heavy and light chains, not shown: another chain or arm of the molecule; large carriers, disulfide 3-9) [AB.Fab4D5-H10] and give its measured pEC50.
OUT: 8.10
